Overview of recorded EC50 for various binders
target: T1, human c-Met (HGFR), full length, on the cell surface (human, UniProt P08581 25-1390); assay: flow cytometry, PC-3 cells pre-incubated with 50 ng/mL HGF
T1 construct: Endogenous c-Met on human tumor cell lines MKN45, NCI-H596, PC-3 and HepG2; also called hepatocyte growth factor receptor; mesenchymal-epithelial transition factor
T1 sequence (P08581 25-1390 limits assumed): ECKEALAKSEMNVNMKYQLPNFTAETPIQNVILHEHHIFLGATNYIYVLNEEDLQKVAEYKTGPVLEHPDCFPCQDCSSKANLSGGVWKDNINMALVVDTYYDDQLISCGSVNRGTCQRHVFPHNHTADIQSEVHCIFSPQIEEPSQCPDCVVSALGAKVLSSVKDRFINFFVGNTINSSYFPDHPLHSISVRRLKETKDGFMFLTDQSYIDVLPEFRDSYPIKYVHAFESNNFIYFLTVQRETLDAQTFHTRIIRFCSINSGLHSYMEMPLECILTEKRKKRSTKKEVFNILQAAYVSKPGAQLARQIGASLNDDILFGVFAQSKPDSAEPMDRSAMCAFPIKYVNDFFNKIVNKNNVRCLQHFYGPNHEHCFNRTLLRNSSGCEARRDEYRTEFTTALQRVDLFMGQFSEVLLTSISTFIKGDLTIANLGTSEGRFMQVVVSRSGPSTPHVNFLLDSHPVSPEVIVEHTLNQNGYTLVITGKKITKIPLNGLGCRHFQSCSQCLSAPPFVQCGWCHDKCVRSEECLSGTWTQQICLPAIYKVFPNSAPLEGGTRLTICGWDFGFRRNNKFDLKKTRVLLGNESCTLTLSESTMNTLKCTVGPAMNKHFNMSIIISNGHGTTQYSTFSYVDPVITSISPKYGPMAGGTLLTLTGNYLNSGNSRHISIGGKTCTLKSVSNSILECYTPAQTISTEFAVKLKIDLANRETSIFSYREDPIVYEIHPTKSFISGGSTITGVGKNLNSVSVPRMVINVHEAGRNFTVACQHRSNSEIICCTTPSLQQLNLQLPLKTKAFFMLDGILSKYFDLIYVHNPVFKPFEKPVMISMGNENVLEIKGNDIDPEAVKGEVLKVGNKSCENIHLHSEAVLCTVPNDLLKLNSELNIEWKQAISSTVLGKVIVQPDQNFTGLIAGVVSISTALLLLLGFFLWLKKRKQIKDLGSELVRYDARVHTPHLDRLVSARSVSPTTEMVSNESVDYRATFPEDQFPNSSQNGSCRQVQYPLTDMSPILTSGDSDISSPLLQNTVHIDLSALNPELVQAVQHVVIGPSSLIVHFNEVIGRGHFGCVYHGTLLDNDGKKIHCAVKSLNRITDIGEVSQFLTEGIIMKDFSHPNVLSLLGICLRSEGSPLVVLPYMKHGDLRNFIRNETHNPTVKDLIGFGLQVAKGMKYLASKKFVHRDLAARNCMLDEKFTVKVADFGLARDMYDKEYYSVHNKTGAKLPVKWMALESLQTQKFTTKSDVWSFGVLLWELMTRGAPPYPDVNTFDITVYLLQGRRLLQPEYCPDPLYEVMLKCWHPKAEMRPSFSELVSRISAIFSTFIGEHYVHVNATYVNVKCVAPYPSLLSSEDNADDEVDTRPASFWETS
MEASUREMENT_LABEL: EC50 (µg/mL)

[
  {
    "BINDER": "mAb3e (antibody, human IgG1, kappa, V domains shown, Humanized IgG1 kappa, HC-41C, from wt/41C-chi-mAb3; also called humanized HC-41C antibody mAb3e) VH: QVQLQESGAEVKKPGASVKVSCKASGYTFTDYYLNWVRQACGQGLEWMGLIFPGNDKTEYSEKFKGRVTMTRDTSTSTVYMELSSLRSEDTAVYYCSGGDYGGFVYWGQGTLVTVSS VL: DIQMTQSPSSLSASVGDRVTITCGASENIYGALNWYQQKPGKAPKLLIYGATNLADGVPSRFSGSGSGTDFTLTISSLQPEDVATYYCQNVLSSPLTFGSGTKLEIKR",
    "MEASUREMENT_LABEL": "EC50",
    "ENDPOINT_UNIT": "µg/mL",
    "RECORDED_NUMBER": 0.09
  },
  {
    "BINDER": "mAb3c (antibody, human IgG1, kappa, V domains shown, Humanized IgG1 kappa, HC-41C, from wt/41C-chi-mAb3; also called humanized HC-41C antibody mAb3c) VH: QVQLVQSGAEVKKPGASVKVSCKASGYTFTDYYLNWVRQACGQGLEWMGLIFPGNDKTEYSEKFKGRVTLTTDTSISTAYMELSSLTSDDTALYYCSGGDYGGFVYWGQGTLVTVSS VL: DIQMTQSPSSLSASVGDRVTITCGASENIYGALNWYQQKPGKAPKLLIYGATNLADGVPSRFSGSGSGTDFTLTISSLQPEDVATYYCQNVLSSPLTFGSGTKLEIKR",
    "MEASUREMENT_LABEL": "EC50",
    "ENDPOINT_UNIT": "µg/mL",
    "RECORDED_NUMBER": 0.06
  },
  {
    "BINDER": "mAb2c (antibody, human IgG1, kappa, V domains shown, Humanized IgG1 kappa, HC-41C, from wt/41C-chi-mAb2; also called humanized HC-41C antibody mAb2c) VH: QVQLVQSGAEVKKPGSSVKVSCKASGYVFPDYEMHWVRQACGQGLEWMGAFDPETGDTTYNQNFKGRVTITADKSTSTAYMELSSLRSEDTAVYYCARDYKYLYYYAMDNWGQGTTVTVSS VL: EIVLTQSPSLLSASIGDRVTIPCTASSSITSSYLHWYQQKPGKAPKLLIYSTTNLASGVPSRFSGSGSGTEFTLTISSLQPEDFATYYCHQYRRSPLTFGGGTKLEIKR",
    "MEASUREMENT_LABEL": "EC50",
    "ENDPOINT_UNIT": "µg/mL",
    "RECORDED_NUMBER": 0.09
  }
]

Where these numbers come from: patent US20240376214A1
